Test: Pharmacokinetic profiles in brain and plasma after oral administration
Assay type: in vivo, mice
Settings: male, BALB/c, mouse, brain / plasma, po; 1 h, 10 mg/kg p.o.; read-out: B/P ratio
Method: Following administration, mice (BALB/c, male, 20-25 g) were sacrificed at 0.5, 1, 2, 3, and 4 h. The blood and brain tissue were collected and extracted with acetonitrile.
parameter_measured: Kp at 1 h

molecule | parameter_measured | recorded_measurement
C=C(C)[C@@H]1CCC(C)=C[C@H]1c1c(O)cc(C(C)n2nccn2)cc1O (some centres unmarked) | Kp at 1 h | 3.63

Proceed to the following item.
// fetch Kp at 1 h given entry C=C(C)[C@@H]1CCC(C)=C[C@H]1c1c(O)cc(CCCCC)cc1O [CBD, reference compound] 0.839

---

assay: Pharmacokinetic profiles in brain and plasma after oral administration; assay type: in vivo, mice; conditions: male, BALB/c, mouse, brain / plasma, po; 3 h, 10 mg/kg p.o.; read-out: B/P ratio
parameter_measured: Kp at 3 h
// print number alone

// fetch Kp at 3 h given entry C=C(C)[C@@H]1CCC(C)=C[C@H]1c1c(O)cc(C(C)n2nccn2)cc1O (stereo partly shown) [CIAC001] 5.76

---

system: LPS-induced proinflammatory factor nitric oxide (NO) in immunocompetent BV-2 cells; assay: NO assay: inhibition of LPS-induced NO overproduction in BV-2 cells; assay type: cell-based; settings: Mus musculus, BV-2, 24 h, read-out: Antineuroinflammatory activity (IC50 inhibiting LPS-induced NO)
pIC50: −log10 of the molar value.
Entry flag: y if pIC50 reaches 5; n if it does not.

molecule | label_class
C#CCOc1cc(CCCCC)cc(OCC#C)c1[C@@H]1C=C(C)CC[C@H]1C(=C)C | n
C=C(C)[C@@H]1CCC(C)=C[C@H]1c1c(O)cc(CCC)cc1O [Compound 12b, reference compound] | y
C=C(C)[C@@H]1CCC(C)=C[C@H]1c1c(OCC)cc(CCCCC)cc1OCC | n
C=C(C)[C@@H]1CCC(C)=C[C@H]1c1c(O)cc(CC)cc1O [Compound 12a] | y

Would you say C=C(C)[C@@H]1CCC(C)=C[C@H]1c1c(O)cc(CCCCC)cc1OCCC shows pIC50 at minimum 5? n

Would you say C=C(C)[C@@H]1CCC(C)=C[C@H]1c1c(OC)cc(CCCCC)cc1OC shows pIC50 at minimum 5? n

Would you say C=C(C)[C@@H]1CCC(C)=C[C@H]1c1c(O)cc(CCCC)cc1O [Compound 12c] shows pIC50 at minimum 5? y

Would you say C=CCOc1cc(CCCCC)cc(O)c1[C@@H]1C=C(C)CC[C@H]1C(=C)C shows pIC50 at minimum 5? n

Would you say C=C(C)[C@@H]1CCC(C)=C[C@H]1c1c(O)cc(CCCCCCCCCCCC)cc1O [Compound 12h] shows pIC50 at minimum 5? n

Would you say C=C(C)[C@@H]1CCC(C)=C[C@H]1c1c(O)cc(CCCCCC)cc1O [Compound 12e] shows pIC50 at minimum 5? y

Would you say C=C(C)[C@@H]1CCC(C)=C[C@H]1c1c(O)cc(CCCCCCCC)cc1O [Compound 12g] shows pIC50 at minimum 5? n

Would you say C=C(C)[C@@H]1CCC(C)=C[C@H]1c1c(O)cc(C(C)n2ccnc2)cc1O (some centres unmarked) [Compound 19c] shows pIC50 at minimum 5? y
